All values here come from patent US7566713B2.

Molecular target: CD80-CD28 interaction (Homo sapiens, UniProt P33681)
Sequence (P33681 35-242 limits assumed): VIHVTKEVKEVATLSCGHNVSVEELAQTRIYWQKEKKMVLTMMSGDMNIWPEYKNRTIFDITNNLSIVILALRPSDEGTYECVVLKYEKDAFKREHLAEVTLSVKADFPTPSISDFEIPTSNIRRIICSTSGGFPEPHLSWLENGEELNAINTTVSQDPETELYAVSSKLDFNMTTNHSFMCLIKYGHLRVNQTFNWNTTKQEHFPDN
Experiment: cell free Homogenous Time Resolved Fluorescence (TRFret) assay, inhibition of the CD80-CD28 interaction
Details: HTRF assay; concentration series 100 μM-1.7 nM; 4 hours at room temperature
pEC50: −log10 of the molar value.
Assign True to entries whose pEC50 meets or exceeds 7; assign False to the rest.

O=C(O)c1ccc(-n2[nH]c3c4c(nnc3c2=O)CCCC4)cc1 = False
O=C(NCCCCN1CCCC1)c1ccc(-n2[nH]c3c4c(nnc3c2=O)CCCC4)cc1 = True

Consider the additional molecule presented here.
Request: Evaluate O=C(NCC(F)F)c1ccc(-n2[nH]c3c4c(nnc3c2=O)CCCC4)cc1 : pEC50 at minimum 7?
Result: False

###

Task for the reader: assign each of the following molecules its reported EC50.
Molecular target: CD80-CD28 interaction (Homo sapiens, UniProt P33681)
Assay: cell free Homogenous Time Resolved Fluorescence (TRFret) assay, inhibition of the CD80-CD28 interaction
Details: HTRF assay; concentration series 100 μM-1.7 nM; 4 hours at room temperature
One number for each entry, in nM.

Before answering, review these 2 worked examples.
CN1C(C)(C)CC(NC(=O)c2ccc(-n3[nH]c4c5c(nnc4c3=O)CCCC5)cc2)CC1(C)C = 93
CN(C)CCCNC(=O)c1ccc(-n2[nH]c3c4c(nnc3c2=O)CCCC4)cc1 = 63

Now for a further molecule.
Request: Look up EC50: O=C(NCCCNC1CCCCC1)c1ccc(-n2[nH]c3c4c(nnc3c2=O)CCCC4)cc1
Result: 101
